test: Plasma stability assay, rat plasma; format: in vitro ADME; conditions: 10 μM, 37° C., 120 min
In this section we review reported % remaining at time point values for a set of compounds.
Value type: % remaining at time point (%)

{"columns": ["Compound", "Result number"],
 "data": [
  ["CCCCCCCCOC(=O)Oc1ccc2c3c1O[C@H]1C(=O)CC[C@@]4(O)C(C2)N(CC2CC2)CC[C@]314 [Compound 23]", 0],
  ["C=C1CC[C@@]2(O)C3Cc4ccc(OCOC(=O)OCCCCCCCCCCCC)c5c4[C@@]2(CCN3CC2CC2)[C@H]1O5 [Compound 24]", 11.8],
  ["C=C1CC[C@@]2(O)C3Cc4ccc(OC(=O)CCCCCCCCCCCCCCC)c5c4[C@@]2(CCN3CC2CC2)[C@H]1O5 [Compound 56]", 56.7],
  ["C=C1CC[C@@]2(O)C3Cc4ccc(OCOC(=O)OCCCCCCCCCCCCCC)c5c4[C@@]2(CCN3CC2CC2)[C@H]1O5 [Compound 25]", 69.3],
  ["CCCCCCCCCCCCCCC(=O)Oc1ccc2c3c1O[C@H]1C(=O)CC[C@@]4(O)C(C2)N(CC2CC2)CC[C@]314 [Compound 58]", 20],
  ["CCCCCCCCCCCCCCCC(=O)Oc1ccc2c3c1O[C@H]1C(=O)CC[C@@]4(O)C(C2)N(CC2CC2)CC[C@]314 [Compound 55]", 47.2],
  ["CCCCCCCCCCCC(=O)OCN1C(=O)CCc2ccc(OCCCCN3CCN(c4cccc(Cl)c4Cl)CC3)cc21 [Aripiprazole Lauroxil, reference compound]", 85.5],
  ["C=C1CC[C@@]2(O)C3Cc4ccc(OC(=O)OCCCCCCCCCCCC)c5c4[C@@]2(CCN3CC2CC2)[C@H]1O5 [Compound 6]", 7.6],
  ["CCCCCCCCCCCCCCCCCCCCCC(=O)Oc1ccc2c3c1O[C@H]1C(=O)CC[C@@]4(O)C(C2)N(CC2CC2)CC[C@]314 [Compound 51]", 105.3]
]}

# credit: patent US10533015B1
